Details: bacteroides fragilis, 12 h, 2 µM
Description: The drug is tested on Bacteroides fragilis strain: 3397 (T10) for biotransformation. The drug concentrations were measured before and after a 12-h incubation by liquid-chromatography-coupled mass spectrometry (LC–MS)
READOUT: Bacterial Biotransformation

Cc1cc2c(s1)Nc1ccccc1N=C2N1CCN(C)CC1 [OLANZAPINE] ... Compound metabolized
CC(O)(CS(=O)(=O)c1ccc(F)cc1)C(=O)Nc1ccc(C#N)c(C(F)(F)F)c1 (centres undefined) [BICALUTAMIDE] ... Compound NOT metabolized
CCN(CC)C(=O)C1(c2ccccc2)CC1CN (centres undefined) ... Compound NOT metabolized
O=c1[nH]c2ccccc2n1C1CCN(CCCC(c2ccc(F)cc2)c2ccc(F)cc2)CC1 [PIMOZIDE] ... Compound NOT metabolized
CC(=O)OCC(=O)[C@@]1(O)[C@@H](C)C[C@H]2[C@@H]3CCC4=CC(=O)C=C[C@]4(C)[C@@]3(F)[C@@H](O)C[C@@]21C [BETAMETHASONE ACETATE] ... Compound metabolized

CCOC(=O)[C@H](CCc1ccccc1)N[C@H]1CCc2ccccc2N(CC(=O)O)C1=O [BENAZEPRIL] has a reported Bacterial Biotransformation of Compound metabolized

OCCOCCN1CCN(C2=Nc3ccccc3Sc3ccccc32)CC1 [QUETIAPINE] has a reported Bacterial Biotransformation of Compound NOT metabolized

CN(C)CCC=C1c2ccccc2COc2ccccc21 [DOXEPIN] has a reported Bacterial Biotransformation of Compound NOT metabolized

C[C@@H](c1ncncc1F)[C@](O)(Cn1cncn1)c1ccc(F)cc1F [VORICONAZOLE] has a reported Bacterial Biotransformation of Compound metabolized

====

Conditions: bacteroides thetaiotaomicron, 12 h, 2 µM
Description: The drug is tested on Bacteroides thetaiotaomicron strain: 7330 for biotransformation. The drug concentrations were measured before and after a 12-h incubation by liquid-chromatography-coupled mass spectrometry (LC–MS)
READOUT: Bacterial Biotransformation

Below, 5 compounds whose answers are already recorded.
OC(c1cc(C(F)(F)F)nc2c(C(F)(F)F)cccc12)C1CCCCN1 (configuration not stated) ... Compound NOT metabolized
CCN(CC)CCOC(=O)C1(C2CCCCC2)CCCCC1 ... Compound NOT metabolized
Cc1ccc(-c2nc3ccc(C)cn3c2CC(=O)N(C)C)cc1 ... Compound NOT metabolized
C#C[C@]1(OC(C)=O)CC[C@H]2[C@@H]3CCC4=C/C(=N/O)CC[C@@H]4[C@H]3CC[C@@]21CC [NORGESTIMATE] ... Compound NOT metabolized
OC(Cn1cncn1)(Cn1cncn1)c1ccc(F)cc1F ... Compound metabolized

"COC1=C(OC)C(=O)C(CCCCCCCCCCO)=C(C)C1=O" has a reported Bacterial Biotransformation of Compound NOT metabolized

"C[C@H]1O[C@@H](O[C@H]2[C@@H](O)C[C@H](O[C@H]3[C@@H](O)C[C@H](O[C@H]4CC[C@@]5(C)[C@H](CC[C@@H]6[C@@H]5C[C@@H](O)[C@]5(C)[C@@H](C7=CC(=O)OC7)CC[C@]65O)C4)O[C@@H]3C)O[C@@H]2C)C[C@H](O)[C@@H]1O" has a reported Bacterial Biotransformation of Compound metabolized

====

Settings: limosilactobacillus reuteri cf48-3a, 12 h, 2 µM
Description: The drug is tested on Lactobacillus reuteri CF48-3A strain: BEI HM-102 for biotransformation. The drug concentrations were measured before and after a 12-h incubation by liquid-chromatography-coupled mass spectrometry (LC–MS)
READOUT: Bacterial Biotransformation

Below, 6 molecules whose answers are already recorded.
CCOc1ccc(NC(C)=O)cc1 ... Compound NOT metabolized
CC(=O)Oc1ccc(C(c2ccc(OC(C)=O)cc2)c2ccccn2)cc1 ... Compound metabolized
Clc1ccc(Cn2c(CN3CCCC3)nc3ccccc32)cc1 ... Compound NOT metabolized
CN1C(C(=O)Nc2ccccn2)=C(O)c2sccc2S1(=O)=O ... Compound NOT metabolized
Clc1cccc(Cl)c1N=C1NCCN1 ... Compound NOT metabolized
CC(=O)O[C@]1(C(C)=O)CC[C@H]2[C@@H]3C=C(C)C4=CC(=O)CC[C@]4(C)[C@H]3CC[C@@]21C [MEGESTROL ACETATE] ... Compound NOT metabolized

O=C(Nc1ccccc1)OCC(CN1CCCCC1)OC(=O)Nc1ccccc1 (stereo not given) has a reported Bacterial Biotransformation of Compound NOT metabolized

O=C(O)COCCN1CCN(C(c2ccccc2)c2ccc(Cl)cc2)CC1 (stereo not given) has a reported Bacterial Biotransformation of Compound NOT metabolized

"O=C(O)CCc1nc(-c2ccccc2)c(-c2ccccc2)o1" has a reported Bacterial Biotransformation of Compound NOT metabolized
